Below, each of the compounds is paired with its reported surface tension liquid-gas value.
conditions: 298.2 K, Pendant drop shape
property.name: surface tension liquid-gas (mN/m)

[
  {
    "chemical.structure": "CCC[N+]1(C)CCCCC1.O=S(=O)([N-]S(=O)(=O)C(F)(F)F)C(F)(F)F",
    "experimental.result": 35.17
  },
  {
    "chemical.structure": "CCCCn1cc[n+](C)c1C.O=S(=O)([N-]S(=O)(=O)C(F)(F)F)C(F)(F)F",
    "experimental.result": 34.5
  },
  {
    "chemical.structure": "CCC[N+]1(C)CCCC1.O=S(=O)([N-]S(=O)(=O)C(F)(F)F)C(F)(F)F",
    "experimental.result": 35.35
  },
  {
    "chemical.structure": "CCC[n+]1cccc(C)c1.O=S(=O)([N-]S(=O)(=O)C(F)(F)F)C(F)(F)F",
    "experimental.result": 35.02
  },
  {
    "chemical.structure": "CCCC[n+]1ccn(C)c1.O=S(=O)([N-]S(=O)(=O)C(F)(F)F)C(F)(F)F",
    "experimental.result": 33.15
  }
]

----------
Below, each of the compounds is paired with its reported mass density value.
conditions: 298.2 K; 101.33 kPa; Liquid; Vibrating tube method

[
  {
    "chemical.structure": "CCCCn1cc[n+](C)c1C.O=S(=O)([N-]S(=O)(=O)C(F)(F)F)C(F)(F)F",
    "mass density [kg/m3]": 1421.2
  },
  {
    "chemical.structure": "CCCC[n+]1ccn(C)c1.O=S(=O)([N-]S(=O)(=O)C(F)(F)F)C(F)(F)F",
    "mass density [kg/m3]": 1436.9
  },
  {
    "chemical.structure": "CCC[N+]1(C)CCCC1.O=S(=O)([N-]S(=O)(=O)C(F)(F)F)C(F)(F)F",
    "mass density [kg/m3]": 1431.7
  },
  {
    "chemical.structure": "CCC[n+]1cccc(C)c1.O=S(=O)([N-]S(=O)(=O)C(F)(F)F)C(F)(F)F",
    "mass density [kg/m3]": 1449.7
  },
  {
    "chemical.structure": "CCC[N+]1(C)CCCCC1.O=S(=O)([N-]S(=O)(=O)C(F)(F)F)C(F)(F)F",
    "mass density [kg/m3]": 1411.4
  }
]
